Test system: Phospho-Rb (Ser807/811)
Test: Phospho-Retinoblastoma (pRB) Cellular Assay
Format: cell-based
Settings: Homo sapiens, OVCAR-3; NIH OVCAR3 cells, 24 hours; concentration giving 50% response
pIC50: −log10 of the molar value.
parameter_measured: pIC50

Past entries and their recorded results:
What value of pIC50 has been recorded for this entry: COc1c(COC(=O)Nc2ccc(Oc3cccc(F)c3F)cc2F)ccc2c1C(=O)N(C1CCC(=O)NC1=O)C2 (stereo not shown) [Example 22]
6.58

Consider the compound COc1c(COC(=O)Nc2ccc(Oc3ccc(F)cc3)cc2C)ccc2c1C(=O)N(C1CCC(=O)NC1=O)C2 (stereo not shown) [Example 51] and give its measured pIC50.
6.73

Recorded pIC50 of COc1cc(Oc2cccc(F)c2)ccc1NC(=O)OCc1ccc2c(c1OC)C(=O)N(C1CCC(=O)NC1=O)C2 (stereo not shown) [Example 48] , please.
7.16

Dear colleague, I am looking for the recorded pIC50 of the following compound: O=C1CCC(N2Cc3ccc(COC(=O)Nc4ccc(Oc5ccc(F)c(F)c5)cc4)c(O[C@H]4CC[C@H](O)CC4)c3C2=O)C(=O)N1 (stereo partly shown) [Example 166]
7.02

(P) COc1c(COC(=O)Nc2ccc(Oc3cccc(Cl)c3)cc2)ccc2c1C(=O)N(C1CCC(=O)NC1=O)C2 (stereo not shown) [Example 3]
(Q) COc1c(COC(=O)Nc2ccc(Oc3cc(F)c(F)c(F)c3)cc2Cl)ccc2c1C(=O)N(C1CCC(=O)NC1=O)C2 (stereo not shown) [Example 25]
(R) CCOc1c(COC(=O)Nc2ccc(Oc3cccc(Cl)c3)cc2)ccc2c1C(=O)N(C1CCC(=O)NC1=O)C2 (stereo not shown) [Example 54]
Endpoint returns the given compounds ordered by ascending pIC50. Ranked list of labels, please, in the requested order.
R, Q, P
(R: 6.20, Q: 6.73, P: 6.99)

----------
Recorded Ratio of GSPT1 DC50/Cyclin E1 DC50 values for a group of compounds are listed next.
Target: Cyclin E1 (Homo sapiens, UniProt P24864+Q96SW2)
Sequence (P24864 whole entry): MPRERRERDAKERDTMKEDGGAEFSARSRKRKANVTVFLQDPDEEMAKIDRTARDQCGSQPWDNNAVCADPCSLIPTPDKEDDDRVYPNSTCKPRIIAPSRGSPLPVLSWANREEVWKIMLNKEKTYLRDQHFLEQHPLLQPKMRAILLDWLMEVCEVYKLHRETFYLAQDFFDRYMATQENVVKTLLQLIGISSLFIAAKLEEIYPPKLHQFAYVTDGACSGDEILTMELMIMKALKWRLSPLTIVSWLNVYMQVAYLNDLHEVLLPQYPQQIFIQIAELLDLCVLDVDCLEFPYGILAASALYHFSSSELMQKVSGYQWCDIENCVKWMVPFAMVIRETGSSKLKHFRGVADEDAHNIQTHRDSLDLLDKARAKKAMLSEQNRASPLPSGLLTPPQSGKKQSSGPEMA
Sequence (Q96SW2 whole entry): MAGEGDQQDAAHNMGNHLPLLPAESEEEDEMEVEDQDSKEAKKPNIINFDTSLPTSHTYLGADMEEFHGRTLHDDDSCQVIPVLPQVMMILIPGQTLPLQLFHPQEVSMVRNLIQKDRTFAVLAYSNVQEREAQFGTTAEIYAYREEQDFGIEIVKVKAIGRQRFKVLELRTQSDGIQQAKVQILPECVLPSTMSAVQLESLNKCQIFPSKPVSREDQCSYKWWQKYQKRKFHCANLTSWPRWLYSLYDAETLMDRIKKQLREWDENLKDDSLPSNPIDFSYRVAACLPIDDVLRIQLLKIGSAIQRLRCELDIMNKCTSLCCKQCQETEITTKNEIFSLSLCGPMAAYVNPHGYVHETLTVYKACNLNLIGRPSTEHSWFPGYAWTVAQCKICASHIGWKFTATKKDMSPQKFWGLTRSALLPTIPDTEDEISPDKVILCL
Sequence (Q16531 whole entry partner): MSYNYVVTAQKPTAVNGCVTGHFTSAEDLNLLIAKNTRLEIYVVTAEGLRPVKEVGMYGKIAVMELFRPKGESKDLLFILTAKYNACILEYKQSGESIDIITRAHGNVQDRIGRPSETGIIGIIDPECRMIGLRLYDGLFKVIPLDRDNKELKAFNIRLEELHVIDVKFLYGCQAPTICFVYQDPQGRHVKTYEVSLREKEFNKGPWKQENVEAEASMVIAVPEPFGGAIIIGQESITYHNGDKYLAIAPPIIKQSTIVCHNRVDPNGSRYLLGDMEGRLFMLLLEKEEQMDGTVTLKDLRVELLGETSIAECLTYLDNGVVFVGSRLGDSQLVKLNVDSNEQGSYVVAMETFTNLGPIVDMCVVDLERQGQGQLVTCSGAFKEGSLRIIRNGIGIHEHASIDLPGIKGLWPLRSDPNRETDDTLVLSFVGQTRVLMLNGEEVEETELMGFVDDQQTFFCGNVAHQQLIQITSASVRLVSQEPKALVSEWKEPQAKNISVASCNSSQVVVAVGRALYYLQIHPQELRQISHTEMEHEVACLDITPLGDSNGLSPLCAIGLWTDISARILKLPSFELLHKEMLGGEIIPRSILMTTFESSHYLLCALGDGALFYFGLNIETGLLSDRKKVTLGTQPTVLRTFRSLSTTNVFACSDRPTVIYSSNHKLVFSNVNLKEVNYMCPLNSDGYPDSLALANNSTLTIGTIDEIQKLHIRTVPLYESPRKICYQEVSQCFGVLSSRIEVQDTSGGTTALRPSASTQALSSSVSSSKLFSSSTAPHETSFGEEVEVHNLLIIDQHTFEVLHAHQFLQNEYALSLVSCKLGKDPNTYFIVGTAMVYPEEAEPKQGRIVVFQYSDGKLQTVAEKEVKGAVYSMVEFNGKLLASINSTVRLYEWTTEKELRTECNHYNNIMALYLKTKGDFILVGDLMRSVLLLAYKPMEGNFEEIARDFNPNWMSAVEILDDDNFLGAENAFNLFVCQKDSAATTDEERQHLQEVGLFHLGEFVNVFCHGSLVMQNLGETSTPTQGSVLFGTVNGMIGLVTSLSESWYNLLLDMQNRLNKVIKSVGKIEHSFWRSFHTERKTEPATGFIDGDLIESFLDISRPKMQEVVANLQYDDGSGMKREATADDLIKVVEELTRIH
Assay: Cyclin E1 Cellular Degradation Assay (MSD)
Format: cell-based
Parameters: endogenous in cells; host or cells: OVCAR3
Details: selectivity for degradation of Cyclin E1 over GSPT1

For the compound CN(C)C(=O)COc1c(COC(=O)Nc2ccc(Oc3ccc(F)c(F)c3)cc2)ccc2c1C(=O)N(C1CCC(=O)NC1=O)C2 (stereo not drawn) [Example 175] , what Ratio of GSPT1 DC50/Cyclin E1 DC50 is on record?
>308

----------
Test system: Phospho-Rb (Ser807/811)
Assay: Phospho-Retinoblastoma (pRB) Cellular Assay
Type: cell-based
Settings: Homo sapiens, OVCAR-3; NIH OVCAR3 cells, 24 hours; concentration giving 50% response
parameter_measured: IC50 (nM)

(1) O=C1CCC(N2Cc3ccc(COC(=O)Nc4ccc(Oc5cc(F)c(F)c(F)c5)cc4F)c(O[C@@H]4CCCOC4)c3C2=O)C(=O)N1 (some centres unmarked)
(2) O=C1CCC(N2Cc3ccc(COC(=O)Nc4ccc(Oc5ccccc5Cl)cc4)c(OC4CCOCC4)c3C2=O)C(=O)N1 (centres unmarked)
IC50 comparison. Which is larger, 1 or 2 ? Answer format: the label of the selected item.
1
(1: 96 nM, 2: 28 nM)

(I) CC(=O)N1CCC(Oc2c(COC(=O)Nc3ccc(Oc4ccc(F)c(F)c4)cc3)ccc3c2C(=O)N(C2CCC(=O)NC2=O)C3)CC1 (centres unmarked)
(II) COc1c(COC(=O)Nc2ccc(Oc3ccc4ccsc4c3)cc2)ccc2c1C(=O)N(C1CCC(=O)NC1=O)C2 (centres unmarked)
Returns: the argument ( I or II ) having the larger IC50. Your answer should be the label attached to the chosen record.
II

(P) COc1c(COC(=O)Nc2ccc(Oc3cc(F)c(F)cc3Cl)cc2F)ccc2c1C(=O)N(C1CCC(=O)NC1=O)C2 (centres unmarked)
(Q) COc1c(COC(=O)Nc2ccc(Oc3ccc(F)c(F)c3)cc2)ccc2c1C(=O)N([C@@H]1CCC(=O)NC1=O)C2 (single isomer, unassigned)
(R) CC(C)Oc1c(COC(=O)Nc2ccc(Oc3ccccc3)cc2)ccc2c1C(=O)N(C1CCC(=O)NC1=O)C2 (centres unmarked)
(S) COc1c(COC(=O)Nc2ccc(C(F)(F)c3ccccc3)cc2)ccc2c1C(=O)N(C1CCC(=O)NC1=O)C2 (centres unmarked)
Order each entry by recorded IC50, climbing from the minimum. Write the labels in rank order as requested.
P, R, Q, S
(P: 66 nM, R: 212 nM, Q: 339 nM, S: 865 nM)

(1) COc1c(COC(=O)Nc2ccc(Oc3cc(F)c(F)c(F)c3)cc2)ccc2c1C(=O)N(C1CCC(=O)NC1=O)C2 (centres unmarked)
(2) COc1c(COC(=O)Nc2ccc(Oc3cc(F)c(F)cc3F)cc2C)ccc2c1C(=O)N(C1CCC(=O)NC1=O)C2 (centres unmarked)
(3) COc1c(COC(=O)Nc2ccc(Oc3cccc(Br)c3)cc2)ccc2c1C(=O)N(C1CCC(=O)NC1=O)C2 (centres unmarked)
(4) O=C1CCC(N2Cc3ccc(COC(=O)Nc4ccc(Oc5ccc(F)c(F)c5)cc4)c(OC4CCOCC4)c3C2=O)C(=O)N1 (centres unmarked)
List the 4 entries from lowest IC50 to highest IC50 value. // rank by listing labels in the order requested
4, 2, 1, 3
(4: 22 nM, 2: 112 nM, 1: 163 nM, 3: 352 nM)

(a) COc1c(COC(=O)Nc2ccc(Oc3ccc(F)c(F)c3)cc2F)ccc2c1C(=O)N(C1CCC(=O)NC1=O)C2 (centres unmarked)
(b) O=C1CCC(N2Cc3ccc(COC(=O)Nc4ccc(Oc5ccc(F)c(F)c5)cc4F)c(Oc4ccccc4)c3C2=O)C(=O)N1 (centres unmarked)
Which entry shows the lesser value of IC50 here, a or b ? Mark your answer with the label of the selected entry.
b
(b: 94 nM, a: 158 nM)
